Catalogue of compounds with associated IC50
# target-or-system: Human Aryl Hydrocarbon Receptor (AhR) (Homo sapiens, UniProt P35869)
# Sequence (P35869 11-848): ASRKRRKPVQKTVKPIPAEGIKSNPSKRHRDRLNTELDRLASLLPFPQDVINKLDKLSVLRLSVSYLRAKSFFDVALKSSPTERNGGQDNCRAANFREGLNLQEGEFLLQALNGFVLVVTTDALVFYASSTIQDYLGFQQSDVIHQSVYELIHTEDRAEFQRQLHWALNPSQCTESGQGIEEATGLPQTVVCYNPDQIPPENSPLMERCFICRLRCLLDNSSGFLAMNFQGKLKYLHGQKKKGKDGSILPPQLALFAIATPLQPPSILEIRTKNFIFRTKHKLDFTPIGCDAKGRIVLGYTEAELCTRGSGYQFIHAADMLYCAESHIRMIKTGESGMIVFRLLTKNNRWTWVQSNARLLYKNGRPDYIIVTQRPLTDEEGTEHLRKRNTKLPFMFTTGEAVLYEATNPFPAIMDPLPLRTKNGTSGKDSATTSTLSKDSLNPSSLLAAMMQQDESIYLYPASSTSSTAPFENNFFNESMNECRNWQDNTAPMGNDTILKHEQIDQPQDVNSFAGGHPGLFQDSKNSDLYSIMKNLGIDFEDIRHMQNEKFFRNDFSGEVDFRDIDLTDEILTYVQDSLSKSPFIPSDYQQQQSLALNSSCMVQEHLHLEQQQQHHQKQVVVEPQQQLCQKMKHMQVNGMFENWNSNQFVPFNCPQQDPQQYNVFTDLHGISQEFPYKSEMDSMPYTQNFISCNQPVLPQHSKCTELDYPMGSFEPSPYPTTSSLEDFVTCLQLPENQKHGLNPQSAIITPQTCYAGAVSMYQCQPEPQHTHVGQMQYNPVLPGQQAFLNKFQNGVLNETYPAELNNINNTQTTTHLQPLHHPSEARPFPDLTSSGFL
# assay-protocol: AHR antagonist reporter assay in human cell line (INDIGO AhR Reporter Assay System, kynurenic acid activated)
# experimental-setup: 200 μM kynurenic acid, 24 hours, luciferase; read-out: AhR Reporter Assay KA Antagonist Mode: IC50
# Experimental: The AhR reporter assay was performed following the protocol of the Human Aryl Hydrocarbon Receptor (AhR) Reporter Assay System (INDIGO Bioscience, #1B06001-32). AhR Reporter Cell was thawed and pre-incubated in Cell Recovery Medium (CRM) for 6 hours. […] The firefly luciferase activity was quantified using a plate reader. […]
assay-metric: IC50

In [3]: df
Out[3]:
                                chem_smiles         result
0  CN(C)C(=O)CNC(=O)c1cc(-c2ccc(Cl)cc2)nn(-c2cccc(F)c2)c1=O  100 to 400 nM
1  O=C(NC1COC1)c1cc(-c2ccc(Cl)cc2)nn(-c2cccc(F)c2)c1=O       > 400 nM
2  COC[C@H](C)NC(=O)c1cc(-c2cnc(C)s2)nn(-c2cnn(C)c2)c1=O       > 400 nM
3  NC(=O)c1cc(-c2ccc(Cl)cc2)nn(-c2cccc(F)c2)c1=O       > 400 nM

###

# target-or-system: UniProtKB P35869
# assay-protocol: AHR antagonist reporter assay in human cell line (INDIGO AhR Reporter Assay System, kynurenic acid activated)
# experimental-setup: 200 μM kynurenic acid, 24 hours, luciferase; read-out: AhR Reporter Assay KA Antagonist Mode: IC50
assay-metric: IC50

>>> df
                                    compound  assay_metric         result
 0  COC[C@H](C)NC(=O)c1cc(-c2ccc(OC)cc2)nn(-c2cnn(C)c2)c1=O          IC50  100 to 400 nM
 1  CC(CN(C)C)NC(=O)c1cc(-c2ccc(Cl)cc2)nn(-c2cccc(F)c2)c1=O (stereo not shown)          IC50       > 400 nM
 2  COC[C@H](C)NC(=O)c1cc(-c2cnc(C(C)C)s2)nn(-c2cnn(C)c2)c1=O          IC50       < 100 nM
 3  C[C@@H](CO)NC(=O)c1cc(N2CCN(c3cccc(F)c3)CC2)nn(-c2cnn(C)c2)c1=O          IC50       < 100 nM
 4  COC[C@H](C)NC(=O)c1cc(-c2ccc(F)cc2Cl)nn(-c2cnn(C)c2)c1=O          IC50       > 400 nM
 5  CNC(=O)CNC(=O)c1cc(-c2ccc(Cl)cc2)nn(-c2cccc(F)c2)c1=O          IC50       > 400 nM
 6  COC[C@H](C)NC(=O)c1cc(-c2ccc3nc(N)ccc3c2)nn(-c2cnn(C)c2)c1=O          IC50       > 400 nM
 7  CNC(=O)[C@H](C)NC(=O)c1cc(-c2ccc(Cl)cc2)nn(-c2cnn(C)c2)c1=O          IC50       < 100 nM
 8  C[C@@H](CO)NC(=O)c1cc(-c2ccc(-c3ccc(Cl)cc3)cc2)nn(-c2cnn(C)c2)c1=O          IC50       < 100 nM
 9  COC[C@H](C)NC(=O)c1cc(-c2ccc(C)cc2)nn(-c2cnn(C)c2)c1=O          IC50  100 to 400 nM
10  COC[C@H](C)NC(=O)c1cc(-c2ccc(C(=O)N(C)C)cc2)nn(-c2cnn(C)c2)c1=O          IC50       < 100 nM
11  COC[C@H](C)NC(=O)c1cc(-c2ccccc2Cl)nn(-c2cnn(C)c2)c1=O          IC50       > 400 nM
12  COC[C@H](C)NC(=O)c1cc(-c2ccc(Cl)cc2F)nn(-c2cnn(C)c2)c1=O          IC50       > 400 nM
13  COC[C@H](C)NC(=O)c1cc(-c2ccc(S(C)(=O)=O)cc2)nn(-c2cnn(C)c2)c1=O          IC50       > 400 nM
14  COC[C@H](C)NC(=O)c1cc(-c2ccc(Cl)cc2)nn(-c2cccc(F)c2)c1=O          IC50       < 100 nM
15  C[C@@H](CO)NC(=O)c1cc(-c2ccc(-c3cccc(F)c3)nc2)nn(-c2cnn(C)c2)c1=O          IC50       < 100 nM
16  CNC(=O)[C@H](C)NC(=O)c1cc(-c2ccc(-c3ccc(Cl)cc3)nc2)nn(-c2cnn(C)c2)c1=O          IC50       < 100 nM
17  CN(C)C(=O)C(C)(C)NC(=O)c1cc(-c2ccc(C(F)(F)F)nc2)nn(-c2cnn(C)c2)c1=O          IC50       > 400 nM
18  C[C@H](NC(=O)c1cc(-n2ncc(-c3ccc(Cl)cc3)n2)nn(-c2cnn(C)c2)c1=O)C(=O)N(C)C          IC50       > 400 nM
19  COC[C@H](C)NC(=O)c1cc(-c2ccc(C#N)cc2)nn(-c2cnn(C)c2)c1=O          IC50       > 400 nM
20  CC(NC(=O)c1cc(-c2ccc(Cl)cc2)nn(-c2cccc(F)c2)c1=O)C(=O)N(C)C (stereo not shown)          IC50       < 100 nM
21  C[C@@H](CO)NC(=O)c1cc(N2CCC(c3ccc(F)cc3)CC2)nn(-c2cnn(C)c2)c1=O          IC50       > 400 nM
22  CNC(=O)[C@H](C)NC(=O)c1cc(-c2ccc(Cl)cc2)nn(-c2cccc(F)c2)c1=O          IC50       < 100 nM
23  COC[C@H](C)NC(=O)c1cc(-n2nnc3ccccc32)nn(-c2cnn(C)c2)c1=O          IC50       > 400 nM
24  CN(C)C(=O)C(C)(C)NC(=O)c1cc(-c2ccc(C(F)(F)F)cc2)nn(-c2cnn(C)c2)c1=O          IC50       < 100 nM
25  C[C@@H](CO)NC(=O)c1cc(-c2ccc(-c3ccc(Cl)cc3)nc2)nn(-c2cnn(C)c2)c1=O          IC50       < 100 nM
26  COC[C@H](C)NC(=O)c1cc(-c2ccc3c(c2)OCC3)nn(-c2cnn(C)c2)c1=O          IC50       < 100 nM
27  COCC(C)NC(=O)c1cc(-c2ccc(Cl)cc2)nn(-c2cccc(F)c2)c1=O (stereo not shown)          IC50       < 100 nM
28  COC[C@H](C)NC(=O)c1cc(C2CCCCC2)nn(-c2cnn(C)c2)c1=O          IC50       > 400 nM
29  CNC(=O)C(C)NC(=O)c1cc(-c2ccc(Cl)cc2)nn(-c2cccc(F)c2)c1=O (stereo not shown)          IC50  100 to 400 nM
30  COC[C@H](C)NC(=O)c1cc(-c2cnc(C3CC3)s2)nn(-c2cnn(C)c2)c1=O          IC50       > 400 nM
